- experimental-system: F508del-CFTR (Homo sapiens, UniProt P13569, DEL508-508)
- Sequence (P13569 with tags, fused parts or gaps DEL508-508): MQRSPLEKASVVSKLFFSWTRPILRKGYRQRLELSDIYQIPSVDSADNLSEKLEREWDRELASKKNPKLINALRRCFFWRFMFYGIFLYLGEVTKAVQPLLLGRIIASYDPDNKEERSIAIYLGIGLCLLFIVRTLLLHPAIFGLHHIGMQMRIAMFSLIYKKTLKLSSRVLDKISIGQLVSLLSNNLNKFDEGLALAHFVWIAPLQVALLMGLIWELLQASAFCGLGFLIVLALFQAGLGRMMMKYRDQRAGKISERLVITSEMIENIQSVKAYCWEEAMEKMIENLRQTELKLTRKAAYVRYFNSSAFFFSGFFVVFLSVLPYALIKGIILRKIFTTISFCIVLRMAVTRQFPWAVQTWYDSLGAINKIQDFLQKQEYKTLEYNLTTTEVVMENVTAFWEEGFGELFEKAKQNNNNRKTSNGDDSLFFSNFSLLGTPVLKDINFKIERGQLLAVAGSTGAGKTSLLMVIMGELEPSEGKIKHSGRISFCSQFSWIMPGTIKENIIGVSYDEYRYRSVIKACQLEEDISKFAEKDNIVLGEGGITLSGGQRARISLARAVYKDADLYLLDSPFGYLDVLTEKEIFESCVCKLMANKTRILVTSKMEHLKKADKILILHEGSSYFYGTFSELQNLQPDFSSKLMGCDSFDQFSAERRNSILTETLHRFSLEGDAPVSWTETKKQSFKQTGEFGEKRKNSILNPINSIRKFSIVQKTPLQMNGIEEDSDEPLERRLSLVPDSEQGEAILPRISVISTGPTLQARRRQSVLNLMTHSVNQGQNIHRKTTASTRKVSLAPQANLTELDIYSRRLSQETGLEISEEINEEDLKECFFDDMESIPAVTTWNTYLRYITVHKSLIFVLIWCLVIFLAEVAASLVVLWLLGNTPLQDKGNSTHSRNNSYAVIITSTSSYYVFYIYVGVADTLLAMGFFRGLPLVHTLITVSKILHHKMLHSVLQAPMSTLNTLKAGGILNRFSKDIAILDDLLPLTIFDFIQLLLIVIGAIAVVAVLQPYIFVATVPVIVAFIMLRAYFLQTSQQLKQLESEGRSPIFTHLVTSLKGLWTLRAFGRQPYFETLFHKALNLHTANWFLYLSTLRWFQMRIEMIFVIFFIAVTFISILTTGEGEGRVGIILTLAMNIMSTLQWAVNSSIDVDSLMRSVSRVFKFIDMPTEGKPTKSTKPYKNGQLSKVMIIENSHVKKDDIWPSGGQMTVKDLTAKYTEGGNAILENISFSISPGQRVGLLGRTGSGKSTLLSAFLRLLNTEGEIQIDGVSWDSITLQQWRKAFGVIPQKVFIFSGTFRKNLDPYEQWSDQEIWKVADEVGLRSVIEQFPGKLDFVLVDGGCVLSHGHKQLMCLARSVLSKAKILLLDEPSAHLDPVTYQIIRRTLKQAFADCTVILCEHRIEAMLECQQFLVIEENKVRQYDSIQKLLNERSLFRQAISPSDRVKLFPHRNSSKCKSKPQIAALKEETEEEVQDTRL
- assay-details: HS-YFP functional assay for F508del-CFTR correctors in CFBE41o- cells
- Format: cell-based
- Parameters: expressed in transfected cells
- condition-set: CFBE41o- cells, HS-YFP assay, 24 h
value-type: F508del-CFTR corrector activity (in words)

// query Input CC(Cc1ccc2c(c1)OCO2)C(=O)Nc1nc(-c2ccccc2)c(C(=O)c2ccccc2)s1 (centres unmarked) [Compound 13b] , output reported F508del-CFTR corrector activity (in words).
// result not tolerated

// query Entry O=C(/C=C\c1ccc2c(c1)OCO2)Nc1nc(-c2ccccc2)c(C(=O)c2ccccc2)s1 [Compound 14b] needs its F508del-CFTR corrector activity (in words) filled in; supply it.
// result not tolerated

* * *

- experimental-system: F508del-CFTR (Homo sapiens, UniProt P13569, DEL508-508)
- assay-details: HS-YFP functional assay for F508del-CFTR correctors in CFBE41o- cells
- Assay type: cell-based
- Design: expressed in transfected cells
- condition-set: CFBE41o- cells stably expressing F508del-CFTR and HS-YFP; 24 h incubation; stimulation with forskolin 20 µM plus VX-770 1 µM
value-type: EC50 (µM)

// query Supply EC50 value. Item: COc1ccc(-c2nc(NC(=O)C3(c4ccc5c(c4)OCO5)CC3)sc2C(=O)c2ccc(-c3ccccc3)cc2)cc1 [Compound 9f]
// result 0.14

// query Output measured EC50 for this item: COc1ccc(-c2nc(NC(=O)C3(c4ccc5c(c4)OCO5)CC3)sc2C(=O)c2ccc(N3CCCC3)cc2)cc1 [Compound 9g]
// result 0.033

// query # return recorded EC50 for input COc1cccc(C(=O)c2sc(NC(=O)C3(c4ccc5c(c4)OCO5)CC3)nc2-c2cccc(OC)c2)c1 [Compound 9o]
// result 0.21

// query Let me know recorded EC50 for COC(=O)c1ccc(-c2nc(NC(=O)C3(c4ccc5c(c4)OCO5)CC3)sc2C(=O)c2ccc(-c3ccccc3)cc2)cc1 [Compound 9r] , thanks.
// result 0.12

// query Report measured EC50; entry is COc1cccc(-c2nc(NC(=O)C3(c4ccc5c(c4)OCO5)CC3)sc2C(=O)c2ccc(OC(F)(F)F)cc2)c1 [Compound 9j]
// result 0.037

a. COc1cccc(C(=O)c2sc(NC(=O)C3(c4ccc5c(c4)OCO5)CC3)nc2-c2ccc(SC)cc2)c1 [Compound 9v]
b. COc1ccc(C(=O)c2sc(NC(=O)C3(c4ccc5c(c4)OCO5)CC3)nc2-c2cccc(OC)c2)cc1 [Compound 9i]
c. COC(=O)c1ccc(-c2nc(NC(=O)C3(c4ccc5c(c4)OCO5)CC3)sc2C(=O)c2ccc(SC)cc2)cc1 [Compound 9y]
d. O=C(c1ccc(-c2ccccc2)cc1)c1sc(NC(=O)C2(c3ccc4c(c3)OCO4)CC2)nc1-c1cccnc1 [Compound 9t]
e. COc1cccc(C(=O)c2sc(NC(=O)C3(c4ccc5c(c4)OCO5)CC3)nc2-c2cccnc2)c1 [Compound 9w]
// query Hey, can you sort those molecules up there by EC50, smallest first? Form field (ranking): labels in requested order.
// result c, d, b, a, e

I. COc1cccc(C(=O)c2sc(NC(=O)C3(c4ccc5c(c4)OCO5)CC3)nc2-c2ccc(Cl)cc2)c1 [Compound 9x]
II. COc1ccccc1-c1nc(NC(=O)C2(c3ccc4c(c3)OCO4)CC2)sc1C(=O)c1ccc(OC(F)(F)F)cc1 [Compound 9q]
// query Which of these two has the smaller recorded EC50: I or II ? Bench note: the answer is the label of the chosen record.
// result II
(II: 0.15 µM, I: 0.37 µM)

P. COc1ccc(-c2nc(NC(=O)C3(c4ccc5c(c4)OCO5)CC3)sc2C(=O)c2ccc(OC(F)(F)F)cc2)cc1 [Compound 9c]
Q. O=C(c1ccc(-c2ccccc2)cc1)c1sc(NC(=O)C2(c3ccc4c(c3)OCO4)CC2)nc1-c1ccc(Cl)cc1 [Compound 9u]
// query Sorting by EC50 in descending order, would P or Q appear first? Answer by stating the label of the chosen item.
// result Q

Data credit: paper PMC8955485
